The reported numbers originate from patent US20220135638A1.

Quick reference: GLP EC50 of the listed items.
target or test system: T1, full-length human GLP-1R (GenBank NM_002062) with an N-terminal FLAG tag on HEK-293T cells (human), P43220
T1 chain: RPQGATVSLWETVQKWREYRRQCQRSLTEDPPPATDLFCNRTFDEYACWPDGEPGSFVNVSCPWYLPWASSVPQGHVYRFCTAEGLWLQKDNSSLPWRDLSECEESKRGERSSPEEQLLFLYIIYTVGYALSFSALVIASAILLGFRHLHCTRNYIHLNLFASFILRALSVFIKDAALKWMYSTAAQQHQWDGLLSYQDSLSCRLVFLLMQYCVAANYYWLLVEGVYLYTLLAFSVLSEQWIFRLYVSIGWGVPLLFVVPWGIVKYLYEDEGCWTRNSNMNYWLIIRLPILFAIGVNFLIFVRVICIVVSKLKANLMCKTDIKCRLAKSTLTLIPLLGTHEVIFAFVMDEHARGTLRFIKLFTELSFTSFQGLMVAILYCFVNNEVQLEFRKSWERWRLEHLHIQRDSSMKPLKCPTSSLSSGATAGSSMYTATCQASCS
assay name: cell-based or functional assay
Numbered stars: 1 amine (or outer) side, 2 acyl side, 3 side chain; on linkers, the order of the positions; unused ones are H or OH. Square brackets hold non-standard residues; d marks the D form. Primed or numbered codes have the meaning given here. Side chains are listed from the residue outwards. Ends that are not written are not given here. * marks the point of attachment. C20 diacid = O=C(O)CCCCCCCCCCCCCCCCCCC(=O)*; C18 diacid = O=C(O)CCCCCCCCCCCCCCCCC(=O)*; γGlu = O=C(O)[C@H](CCC(=O)[*:2])N[*:1]; Iva = CC[C@](C)(N)C(=O)O; PEG3′ = not defined here; Aib = CC(C)(N)C(=O)O
quantity name: GLP EC50

binder="Y[Aib]EGTFISDYSIALDR[Aib]HQ[Aib]NFVNW[Iva]LAQRPSSK([Gly-Gly-Gly-Gly-Gly-γGlu-C18 diacid])APPPS (ends and bridges not checked) [Compound No. 448]" quantity_name="GLP EC50" value_observed="> 1000 nM"
binder="Y[Aib]EGTFISDYSIALDR[Aib]HQ[Aib]NFVNW[Iva]LAQRPSSGAPPK([Gly-Gly-Gly-Gly-Gly-γGlu-C20 diacid])S (ends and bridges not checked) [Compound No. 461]" quantity_name="GLP EC50" value_observed="> 1000 nM"
binder="Y[Aib]EGTFISDYSIALDR[Aib]HQ[Aib]NFVNW[Iva]LAQRPSSGAK([PEG3′-γGlu-C20 diacid])PPS (ends and bridges not checked) [Compound No. 526]" quantity_name="GLP EC50" value_observed="> 1000 nM"
